Test system: SNB-19
assay.summary: NCI tumour cell line growth inhibition, 48 h
Calls of active or inactive are those of the source. Rule as the data show it: active = GI50 up to about 1.1 µM and inactive = higher.
Outcomes: 1 = active, 0 = inactive

{"compound": "O=C1CCCC2C3CC(CN12)C1CCCCN1C3.[O-][Cl+3]([O-])([O-])O (stereo not given)", "group.label": 0}
{"compound": "O=C(c1cccs1)N(C(=S)OCCOc1ccccc1)c1ccccc1", "group.label": 0}
{"compound": "CC(=O)O[C@@H]1CO[C@H]2O[C@H]3[C@@H](C(C=O)=C[C@H](O)[C@@H]4C5=C(C(C)C)CC[C@]5(C)CC[C@@]34C)[C@@]2(O)C1=O", "group.label": 1}
{"compound": "COC(=O)c1c(CC(Cc2ccc3c(c2)CCCC3)C(=O)OC)ccc2c1CCCC2 (stereo not given)", "group.label": 0}
{"compound": "CCOC(=O)C1CCCC1S(=O)(=O)c1ccc(C)cc1 (stereo not given)", "group.label": 0}
